- MEASURED ON: leukotriene D4 (LTD4) induced contraction of guinea pig tracheal tissues (Cavia porcellus, UniProt Q2NNR5)
- Construct: Guinea pig (adult male albino Hartley strain) tracheal spiral strips; from tissue; host or cells: guinea pig trachea (spiral strips, adult male albino Hartley strain)
- Sequence (Q2NNR5 whole entry): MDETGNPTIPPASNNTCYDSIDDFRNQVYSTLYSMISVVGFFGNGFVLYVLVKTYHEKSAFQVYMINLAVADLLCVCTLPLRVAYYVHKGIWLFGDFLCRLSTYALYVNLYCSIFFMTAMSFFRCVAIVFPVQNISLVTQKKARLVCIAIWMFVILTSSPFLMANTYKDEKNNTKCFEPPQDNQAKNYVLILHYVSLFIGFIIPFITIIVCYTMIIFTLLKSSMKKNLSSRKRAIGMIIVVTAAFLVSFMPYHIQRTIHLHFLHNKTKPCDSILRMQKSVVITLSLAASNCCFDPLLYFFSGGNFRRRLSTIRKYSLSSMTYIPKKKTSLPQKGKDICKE
- PROCEDURE SUMMARY: in vitro inhibition of LTD4 induced contraction of guinea pig tracheal spiral strips
- Format: cell-based, guinea pig (adult male albino Hartley strain)
- EXPERIMENTAL PARAMETERS: guinea pig trachea, LTD4 agonist, 30 min pretreatment with test compound
RECORDED ENDPOINT: Kb (nM)
Field: numeric (nM). Do not append units.

COMPOUND | Kb (nM)
O=C(O)CCSC(SCCC(=O)O)c1ccccc1CCCCCCCCc1ccc(C(F)(F)F)cc1 | 631
CCCCCCCCCCC#Cc1ccccc1C(SCCC(=O)O)SCCC(=O)O | 794
CCCCCCCCCCCCc1ccccc1C(SCCC(=O)O)SCCC(=O)O | 631

Moving on to another compound below.
Enquiry: Query (compound): CCCCCCCCCCCCc1ccccc1C(SCCC(=O)O)[S+]([O-])CCC(=O)O (stereo not shown) ; field requested: Kb
Return: 1580
